A collection of compounds and their measured manual score
target: G protein-activated inward rectifier potassium channel 2 (Homo sapiens) + G protein-activated inward rectifier potassium channel 1 (Homo sapiens) (UniProt P48051+P48549); assay: GIRK1/2 thallium flux modulators, retest, confirmation, cell-based, HEK293 rmGlu8/hGIRK1/2, FluoZin-2 (AID 623911); details: HEK293 rmGlu8/hGIRK1/2, thallium flux FluoZin-2; actives lie on both sides; glutamate co-added at its EC20 level
Sequence (P48051 whole entry, looked up): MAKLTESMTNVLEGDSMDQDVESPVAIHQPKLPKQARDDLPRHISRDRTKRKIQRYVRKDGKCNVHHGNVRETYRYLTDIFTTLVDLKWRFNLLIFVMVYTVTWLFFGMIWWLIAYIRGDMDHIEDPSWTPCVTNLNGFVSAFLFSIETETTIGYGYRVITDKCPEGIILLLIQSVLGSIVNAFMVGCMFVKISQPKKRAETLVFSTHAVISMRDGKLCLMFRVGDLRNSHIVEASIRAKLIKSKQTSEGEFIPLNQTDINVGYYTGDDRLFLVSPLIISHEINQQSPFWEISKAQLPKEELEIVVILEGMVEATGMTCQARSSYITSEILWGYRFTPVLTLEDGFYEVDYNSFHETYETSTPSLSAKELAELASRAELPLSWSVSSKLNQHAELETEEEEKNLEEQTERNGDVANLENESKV
Sequence (P48549 whole entry, looked up): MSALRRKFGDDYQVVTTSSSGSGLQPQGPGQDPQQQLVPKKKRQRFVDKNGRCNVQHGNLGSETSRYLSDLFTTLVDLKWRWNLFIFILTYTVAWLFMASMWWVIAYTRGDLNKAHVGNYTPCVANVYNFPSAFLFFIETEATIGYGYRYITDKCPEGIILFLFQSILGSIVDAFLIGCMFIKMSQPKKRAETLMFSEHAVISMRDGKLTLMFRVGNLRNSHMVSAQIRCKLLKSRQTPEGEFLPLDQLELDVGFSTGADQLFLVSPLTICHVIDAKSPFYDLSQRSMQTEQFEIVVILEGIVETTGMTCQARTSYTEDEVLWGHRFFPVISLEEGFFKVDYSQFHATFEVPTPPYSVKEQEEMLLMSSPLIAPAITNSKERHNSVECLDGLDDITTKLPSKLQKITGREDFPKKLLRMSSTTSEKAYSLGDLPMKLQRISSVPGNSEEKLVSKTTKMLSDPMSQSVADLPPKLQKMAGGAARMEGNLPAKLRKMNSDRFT
Out of some 2,100 compounds screened, about 770 (37%) were called active. Some of the results follow.

{"columns": ["COMPOUND", "manual score"],
 "data": [
  ["COc1ccc(CC(=O)Nc2cc(=O)n(C)c(=O)n2C)cc1", 0],
  ["O=C(NC(=S)Nc1cc([N+](=O)[O-])ccc1Cl)c1ccccc1", 0],
  ["O=C(/C=C/c1ccccc1)NC(NC(=S)Nc1cc(Cl)ccc1Cl)C(Cl)(Cl)Cl (stereo not given)", 1],
  ["Cc1ccccc1-c1nc(CS(=O)(=O)CC(=O)NCCCN2CCCC2)c(C)o1", -1],
  ["O=C(/C=C/c1ccccc1)NC(NC(=S)Nc1cccc(Cl)c1)C(Cl)(Cl)Cl (stereo not given)", 1],
  ["Cc1c(NC(=S)NC(NC(=O)CC(C)C)C(Cl)(Cl)Cl)c(=O)n(-c2ccccc2)n1C (stereo not given)", 0],
  ["N#C/C(=C/C=C/c1ccccc1)C(=O)Nc1ccccc1", 0],
  ["COc1ccc(NC(=S)NC(NC(=O)/C=C/c2ccccc2)C(Cl)(Cl)Cl)cc1 (stereo not given)", 1],
  ["N#Cc1c(N2CCN(C(=O)c3ccccc3)CC2)nc(-c2ccccc2)c2c1CCCC2", 0],
  ["CCn1c(N)c(C(=O)NCc2ccco2)sc1=S", 0]
]}
